MEASUREMENT NAME: glass transition temperature (°C)

1. *c1ccc2c(c1)C(=O)N(c1ccc(-c3ccc(N4C(=O)c5ccc(C(*)(C(F)(F)F)C(F)(F)F)cc5C4=O)cc3-c3ccccc3C(F)(F)F)c(-c3ccccc3C(F)(F)F)c1)C2=O (repeat unit) ... 289.00
2. *c1ccc2c(c1)C(=O)N(c1ccc(Oc3ccc(P(=O)(c4ccccc4)c4ccc(Oc5cccc(N6C(=O)c7ccc(C(*)(C(F)(F)F)C(F)(F)F)cc7C6=O)c5)cc4)cc3)cc1)C2=O (repeat unit) ... 220.00
3. *c1ccc2c(c1)C(=O)N(c1c(F)cc(Oc3ccc(C(c4ccc(Oc5cc(F)c(N6C(=O)c7ccc(C(*)(C(F)(F)F)C(F)(F)F)cc7C6=O)c(F)c5)cc4)(C(F)(F)F)C(F)(F)F)cc3)cc1F)C2=O (repeat unit) ... 224.00
4. *C(=O)c1ccc2c(c1)C(=O)N(c1ccc(Oc3ccccc3N3C(=O)c4ccc(*)cc4C3=O)cc1)C2=O (repeat unit) ... 287.00
5. *C(=O)c1ccc2c(c1)C(=O)N(c1cc(N3C(=O)c4ccc(*)cc4C3=O)ccc1OCC(F)(F)C(F)(F)C(F)(F)C(F)(F)C(F)(F)C(F)(F)C(F)(F)C(F)(F)C(F)(F)C(F)(F)F)C2=O (repeat unit) ... 194.00
6. *Oc1cccc(C(=O)c2ccc(Oc3cccc4c3C(=O)N(c3cccc(N5C(=O)c6cccc(*)c6C5=O)c3)C4=O)cc2)c1 (repeat unit) ... 248.00
7. *Oc1cccc(Oc2ccc(Oc3ccc4c(c3)C(=O)N(c3ccc(Oc5ccc(N6C(=O)c7ccc(*)cc7C6=O)cc5)cc3)C4=O)cc2)c1 (repeat unit) ... 215.00
8. *Oc1ccc2c(c1)C(=O)N(c1cccc(Oc3ccc(P(=O)(c4ccccc4)c4ccc(Oc5ccc(N6C(=O)c7ccc(*)cc7C6=O)cc5)cc4)cc3)c1)C2=O (repeat unit) ... 240.00
9. *Oc1ccc2c(c1)C(=O)N(c1ccc(C(=O)c3ccc(N4C(=O)c5ccc(*)cc5C4=O)cc3)cc1)C2=O (repeat unit) ... 274.00
10. *Oc1cccc(S(=O)(=O)c2ccc(Oc3ccc4c(c3)C(=O)N(c3ccc(Oc5ccc(N6C(=O)c7ccc(*)cc7C6=O)cc5)cc3)C4=O)cc2)c1 (repeat unit) ... 260.00
